Here, each record is paired with measured Ki data.
- SYSTEM NAME: T1, Human EphA2 (Ecto) (Human, UniProt P29317 24-537)
- T1 construct: extracellular domain
- T1 sequence (P29317 24-537): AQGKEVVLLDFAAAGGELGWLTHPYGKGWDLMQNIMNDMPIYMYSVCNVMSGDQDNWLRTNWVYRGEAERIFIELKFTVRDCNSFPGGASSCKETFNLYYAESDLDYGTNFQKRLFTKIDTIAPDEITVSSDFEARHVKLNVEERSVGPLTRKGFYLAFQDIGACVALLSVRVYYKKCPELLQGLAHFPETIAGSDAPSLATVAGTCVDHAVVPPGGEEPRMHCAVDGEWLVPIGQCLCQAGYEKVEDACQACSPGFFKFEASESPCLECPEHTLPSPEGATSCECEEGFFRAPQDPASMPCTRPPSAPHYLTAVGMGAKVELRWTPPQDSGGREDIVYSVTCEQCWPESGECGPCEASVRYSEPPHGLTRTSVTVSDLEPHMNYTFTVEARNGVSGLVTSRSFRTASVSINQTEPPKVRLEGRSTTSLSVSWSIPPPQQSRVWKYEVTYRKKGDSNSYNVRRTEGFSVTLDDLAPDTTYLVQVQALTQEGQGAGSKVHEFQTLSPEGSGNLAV
- PROCEDURE TEXT: FP competition; competitor Compound 18
Numbered stars: 1 amine (or outer) side, 2 acyl side, 3 side chain; on linkers, the order of the positions; unused ones are H or OH. Bridge positions count the residues as written; N and C are the ends. Square brackets hold non-standard residues; d marks the D form. Ends that are not written are not given here. 1Nal = N[C@@H](Cc1cccc2ccccc12)C(=O)O; TBMB = c1c(C[*:1])cc(C[*:3])cc1C[*:2]; hArg = N=C(N)NCCCC[C@H](N)C(=O)O; Tle = CC(C)(C)[C@H](N)C(=O)O; Aib = CC(C)(N)C(=O)O; Sar = CNCC(=O)O
Write down the numeric answer in nM and omit the unit.

BINDER | UNITS | Ki
AHDVPCPWGPF[1Nal]CPVNRPGC (linker 6-13-20 via TBMB) [Compound 189] | nM | 1.3

stdin: Return value of Ki for input ADVHCPWGAFWCPVNRPGCA (linker 5-12-19 via TBMB) [Compound 152] , no commentary.
stdout: 1.8

stdin: Return value of Ki for input [Sar][Sar]ACP[1Nal]GPFWCP[Tle]N[hArg][Aib]GC (linker 4-11-18 via TBMB) [Compound 138] , no commentary.
stdout: 5.1

stdin: Return value of Ki for input Ac-[Sar][Sar]A[dH]DVPCPWG[Aib]FWCP[Tle]NR[Aib]GC (linker 8-15-22 via TBMB) [Compound 233] , no commentary.
stdout: 4.8

stdin: Return value of Ki for input Ac-[Sar][Sar]ADVTCPWGPFWCPVNRPGC (linker 7-14-21 via TBMB) [Compound 157] , no commentary.
stdout: 0.91
